Test system: Klebsiella pneumoniae
Method Notes: Minimum inhibitory concentration of Klebsiella pneumoniae growth.
Assay type: functional
Measure Name: MIC (µM)
Numbers only, in µM.

A selection of reference data follows.
>>> print(df.to_string())
                              smiles_record        subject_of_test  quantitative_result
0  Cc1cccc(CN(CCNCCCO)Cc2cccc(CN(Cc3cccc(C)c3)Cc3cccc(C(F)(F)F)c3)n2)c1  Klebsiella pneumoniae                   12
1  OCCCNCCN(Cc1cccc(C(F)(F)F)c1)Cc1cccc(CN(Cc2ccccc2)Cc2cccc(C(F)(F)F)c2)n1  Klebsiella pneumoniae                   50
2  Cc1cccc(CN(CCNCCCO)Cc2cccc(CN(Cc3ccccc3)Cc3cccc(C(F)(F)F)c3)n2)c1  Klebsiella pneumoniae                   12
3  OCCCNCCN(Cc1ccccc1)Cc1cccc(CN(Cc2ccccc2)Cc2ccccc2)n1  Klebsiella pneumoniae                   50
4  Cc1cccc(CN(Cc2cccc(C(F)(F)F)c2)Cc2cccc(CN(CCNCCCO)Cc3cccc(C(F)(F)F)c3)n2)c1  Klebsiella pneumoniae                  100

Would you kindly look at the next entry?
[ask] MIC lookup needed for Cc1cccc(CN(CCNCCCO)Cc2cccc(CN(Cc3cccc(F)c3)Cc3cccc(C(F)(F)F)c3)n2)c1 , thanks.
[reply] 25

* * *

Tested on: Escherichia coli
Method Notes: Minimum inhibitory concentration of Escherichia coli growth.
Format: functional
Run Parameters: Escherichia coli; read-out: MIC
Measure Name: MIC (µM)
Answers are plain numbers, in µM.

A selection of reference data follows.
In [3]: df
Out[3]:
                              smiles_record  measure_name  quantitative_result
0  OCCCNCCN(Cc1cccc(C(F)(F)F)c1)Cc1cccc(CN(Cc2cccc(C(F)(F)F)c2)Cc2cccc(C(F)(F)F)c2)n1           MIC                    5
1  OCCCNCCN(Cc1cccc(C(F)(F)F)c1)Cc1cccc(CN(Cc2ccccc2)Cc2cccc(C(F)(F)F)c2)n1           MIC                    3
2  O=[N+]([O-])c1cccc(CN(CCNCCCO)Cc2cccc(CN(Cc3cccc([N+](=O)[O-])c3)Cc3cccc([N+](=O)[O-])c3)n2)c1           MIC                   10

For each of the compounds below, note its MIC.
1. OCCCNCCN(Cc1cccc(F)c1)Cc1cccc(CN(Cc2cccc(F)c2)Cc2cccc(F)c2)n1
2. COC(=O)c1cccc(CN(CCNCCCO)Cc2cccc(CN(Cc3cccc(C(=O)OC)c3)Cc3cccc(C(=O)OC)c3)n2)c1
3. Cc1cccc(CN(CCNCCCO)Cc2cccc(CN(Cc3cccc(C)c3)Cc3cccc(C)c3)n2)c1
4. Cc1cccc(CN(Cc2cccc(C(F)(F)F)c2)Cc2cccc(CN(CCNCCCO)Cc3cccc(C(F)(F)F)c3)n2)c1
5. OCCCNCCN(Cc1cccc(C(F)(F)F)c1)Cc1cccc(CN(Cc2cccc(F)c2)Cc2cccc(C(F)(F)F)c2)n1
6. OCCCN(CCN(Cc1ccccc1)Cc1cccc(CN(Cc2ccccc2)Cc2ccccc2)n1)Cc1ccccc1
7. OCCCNCCN(Cc1ccccc1)Cc1cccc(CN(Cc2ccccc2)Cc2ccccc2)n1

[reply]
[5, 20, 5, 3, 6, 25, 10]

[ask] MIC lookup needed for Cc1cccc(CN(CCNCCCO)Cc2cccc(CN(Cc3cccc(C(F)(F)F)c3)Cc3cccc(C(F)(F)F)c3)n2)c1 , thanks.
[reply] 25

* * *

Test system: Escherichia coli
Method Notes: Minimum inhibitory concentration of Escherichia coli growth.
Format: functional
Run Parameters: Escherichia coli; read-out: MIC
Assign MIC to each entry below.

For each of the compounds below, note its MIC.
1. NCc1cccc(CNCCNCCCO)n1
2. O=[N+]([O-])c1cccc(CN(Cc2cccc(C(F)(F)F)c2)Cc2cccc(CN(CCNCCCO)Cc3cccc(C(F)(F)F)c3)n2)c1
3. Cc1cccc(CN(CCNCCCO)Cc2cccc(CN(Cc3cccc(C)c3)Cc3cccc(C(F)(F)F)c3)n2)c1
4. COC(=O)c1cccc(CN(Cc2cccc(C(F)(F)F)c2)Cc2cccc(CN(CCNCCCO)Cc3cccc(C(F)(F)F)c3)n2)c1
5. Cc1cccc(CN(CCNCCCO)Cc2cccc(CN(Cc3cccc([N+](=O)[O-])c3)Cc3cccc(C(F)(F)F)c3)n2)c1
6. COC(=O)c1cccc(CN(Cc2cccc(C(F)(F)F)c2)Cc2cccc(CN(CCNCCCO)Cc3cccc(C)c3)n2)c1

[reply]
["> 100 µM", "6 µM", "25 µM", "6 µM", "25 µM", "25 µM"]

For each of the compounds below, note its MIC.
1. Cc1cccc(CN(CCNCCCO)Cc2cccc(CN(Cc3cccc(F)c3)Cc3cccc(C(F)(F)F)c3)n2)c1
2. Cc1cccc(CN(CCNCCCO)Cc2cccc(CN(Cc3ccccc3)Cc3cccc(C(F)(F)F)c3)n2)c1

[reply]
["5 µM", "5 µM"]

* * *

Assign MIC to each entry below.
Test system: Enterococcus faecalis
Method Notes: Minimum inhibitory concentration of Enterococcus faecalis growth.
Type: functional
Give bare numbers, in µM.

A selection of reference data follows.
>>> print(df.to_string())
                              smiles_record  measure_name  quantitative_result
0  OCCCNCCN(Cc1ccccc1)Cc1cccc(CN(Cc2ccccc2)Cc2ccccc2)n1           MIC                   12
1  OCCCNCCN(Cc1cccc(F)c1)Cc1cccc(CN(Cc2cccc(F)c2)Cc2cccc(F)c2)n1           MIC                   25
2  Cc1cccc(CN(CCNCCCO)Cc2cccc(CN(Cc3cccc(C)c3)Cc3cccc(C(F)(F)F)c3)n2)c1           MIC                    6
3  Cc1cccc(CN(CCNCCCO)Cc2cccc(CN(Cc3cccc(C)c3)Cc3cccc(C)c3)n2)c1           MIC                    6
4  Cc1cccc(CN(CCNCCCO)Cc2cccc(CN(Cc3cccc(C(F)(F)F)c3)Cc3cccc(C(F)(F)F)c3)n2)c1           MIC                    6

[ask] MIC lookup needed for O=[N+]([O-])c1cccc(CN(Cc2cccc(C(F)(F)F)c2)Cc2cccc(CN(CCNCCCO)Cc3cccc(C(F)(F)F)c3)n2)c1 , thanks.
[reply] 6
